Entries below carry reported pIC50 on hPI4KB (Homo sapiens).
Sequence (Q9UBF8 whole entry): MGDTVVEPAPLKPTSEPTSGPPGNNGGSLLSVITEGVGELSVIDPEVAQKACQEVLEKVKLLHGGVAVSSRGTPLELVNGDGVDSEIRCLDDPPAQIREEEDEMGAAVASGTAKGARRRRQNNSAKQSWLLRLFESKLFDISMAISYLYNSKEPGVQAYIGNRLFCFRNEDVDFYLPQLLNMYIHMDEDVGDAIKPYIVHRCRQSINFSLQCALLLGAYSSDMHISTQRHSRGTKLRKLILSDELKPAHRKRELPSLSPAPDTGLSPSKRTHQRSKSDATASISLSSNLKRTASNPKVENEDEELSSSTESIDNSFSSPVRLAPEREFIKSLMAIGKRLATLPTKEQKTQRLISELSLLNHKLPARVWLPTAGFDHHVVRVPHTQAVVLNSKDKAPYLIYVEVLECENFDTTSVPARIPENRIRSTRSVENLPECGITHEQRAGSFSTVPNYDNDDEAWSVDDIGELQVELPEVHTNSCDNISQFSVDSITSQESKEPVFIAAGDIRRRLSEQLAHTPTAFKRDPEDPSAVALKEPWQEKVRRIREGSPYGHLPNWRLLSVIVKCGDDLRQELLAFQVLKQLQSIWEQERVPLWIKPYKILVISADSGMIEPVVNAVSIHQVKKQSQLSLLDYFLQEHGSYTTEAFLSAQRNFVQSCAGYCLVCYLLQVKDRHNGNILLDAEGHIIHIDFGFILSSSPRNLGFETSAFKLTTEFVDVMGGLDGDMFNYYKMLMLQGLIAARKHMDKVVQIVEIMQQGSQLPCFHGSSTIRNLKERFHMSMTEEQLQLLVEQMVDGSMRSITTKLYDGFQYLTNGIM
pIC50: −log10 of the molar value.

# MOLECULE, ASSAYED_SYSTEM, pIC50
records = [
    ("Nc1ncc(-c2ccc(C(=O)O)cc2)nc1-c1ccc(C(F)(F)F)cc1", "hPI4KB (Homo sapiens)", 5.11),
    ("NC(=O)c1ccc(-c2cnc(N)c(-c3ccc(C(F)(F)F)cc3)n2)cc1 [Reference 1, reference compound]", "hPI4KB (Homo sapiens)", 5.30),
    ("Nc1ncc(-c2ccc(C(=O)O)cc2)nc1-c1ccc(C(F)(F)F)nc1", "hPI4KB (Homo sapiens)", 4.64),
]
